Origin of measurements: patent US4689426A

// reported IC50 for each item listed
- Tested on: L1210 leukemia cells
- assay: Inhibition of proliferation of L1210 leukemia cells
- Type: cell-based
- experimental.context: Mus musculus, L1210, 96 h; 4 days at 37° C., trypan blue count of surviving cells
experimental.readout: IC50

[[record]]
compound = "CCCCC1C=C(Cl)C(=O)/C1=C/CCCCCC(=O)OC (single isomer, unassigned)"
observed_measurement = "0.1 µg/mL"

[[record]]
compound = "CCCCC1C=C(Br)C(=O)/C1=C/CCCCCC(=O)OC (single isomer, unassigned)"
observed_measurement = "0.2 µg/mL"

[[record]]
compound = "CCCCC1C=C(Cl)C(=O)/C1=C\\CCCCCC(=O)OC (single isomer, unassigned)"
observed_measurement = "< 0.3 µg/mL"

[[record]]
compound = "CCCCC1C=C(Br)C(=O)/C1=C\\CCCCCC(=O)OC (single isomer, unassigned)"
observed_measurement = "0.1 µg/mL"

